The following molecules each carry a recorded IC50 for human renin (Homo sapiens, UniProt P00797).
Write it as a number; the unit nM goes unstated.

{"columns": ["Molecule", "U", "Reported measurement"],
 "data": [
  ["COC(=O)[C@H](NC(=O)OC(C)(C)C)C(C)(C)S(=O)(=O)CC(Cc1ccccc1)C(=O)N[C@@H](Cc1c[nH]cn1)C(=O)N[C@@H](CC1CCCCC1)[C@@H](O)[C@@H](O)C1CC1 (single isomer, unassigned)", "nM", 0.061],
  ["CC(C)(C(=O)N1CCOCC1)S(=O)(=O)C[C@@H](Cc1ccccc1)C(=O)N[C@@H](Cc1c[nH]cn1)C(=O)N[C@@H](CC1CCCCC1)[C@@H](O)[C@@H](O)C1CC1", "nM", 0.03],
  ["CC(C)(C(=O)N[C@H]1C(O)O[C@H](CO)[C@@H](O)[C@@H]1O)S(=O)(=O)C[C@@H](Cc1ccccc1)C(=O)N[C@@H](Cc1c[nH]cn1)C(=O)N[C@@H](CC1CCCCC1)[C@@H](O)[C@@H](O)C1CC1 (stereo partly shown)", "nM", 0.3]
]}

Lab note: record IC50 of COCC(=O)OCC(C)(C)S(=O)(=O)CC(Cc1ccccc1)C(=O)N[C@@H](Cc1c[nH]cn1)C(=O)N[C@@H](CC1CCCCC1)[C@@H](O)[C@@H](O)C1CC1 (single isomer, unassigned) tested on human renin (Homo sapiens, UniProt P00797).
0.2

* * *

target: renin in human plasma (Homo sapiens, UniProt P00797); construct: The test solution comprises (1) 225 μl of plasma; experiment: Test B: in vitro test with human plasma; conditions: pH 6, 3 hours at 37° C., angiotensin I by RIA
Sequence (P00797 67-406): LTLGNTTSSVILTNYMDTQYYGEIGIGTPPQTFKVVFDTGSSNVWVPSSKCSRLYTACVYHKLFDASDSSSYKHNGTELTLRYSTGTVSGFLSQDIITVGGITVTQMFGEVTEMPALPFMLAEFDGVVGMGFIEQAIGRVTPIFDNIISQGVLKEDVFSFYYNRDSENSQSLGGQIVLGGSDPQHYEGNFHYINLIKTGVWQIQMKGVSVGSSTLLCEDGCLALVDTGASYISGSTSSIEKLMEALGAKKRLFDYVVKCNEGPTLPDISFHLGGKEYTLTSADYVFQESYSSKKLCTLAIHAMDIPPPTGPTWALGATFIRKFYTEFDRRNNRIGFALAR
Value type: IC50 (pM)
Write it as a number; the unit pM goes unstated.

A selection of reference data follows.
{"columns": ["Compound", "U", "IC50"],
 "data": [
  ["COC(=O)[C@H](NC(=O)OC(C)(C)C)C(C)(C)S(=O)(=O)CC(Cc1ccccc1)C(=O)N[C@@H](Cc1c[nH]cn1)C(=O)N[C@@H](CC1CCCCC1)[C@@H](O)[C@@H](O)C1CC1 (single isomer, unassigned)", "pM", 140],
  ["CC(C)(C(=O)N1CCOCC1)S(=O)(=O)C[C@@H](Cc1ccccc1)C(=O)N[C@@H](Cc1c[nH]cn1)C(=O)N[C@@H](CC1CCCCC1)[C@@H](O)[C@@H](O)C1CC1", "pM", 100]
]}

Let's switch to this compound now.
# return recorded IC50 for input CC(C)(C(=O)N[C@H]1C(O)O[C@H](CO)[C@@H](O)[C@@H]1O)S(=O)(=O)C[C@@H](Cc1ccccc1)C(=O)N[C@@H](Cc1c[nH]cn1)C(=O)N[C@@H](CC1CCCCC1)[C@@H](O)[C@@H](O)C1CC1 (stereo partly shown)
110
